The entries below pair compounds with IC50 values for Angiopoietin-1 receptor (Homo sapiens), as found in several publications.

Give the reported IC50 for `O=C(NCC1CCN(c2nsnc2OCc2ccncc2)CC1)Nc1cc(C(F)(F)F)cc(C(F)(F)F)c1` (system: Angiopoietin-1 receptor (Homo sapiens)).
0.05 to 1 µM

What do you get for `Cn1ccnc1C(=O)c1cc(=O)c2c(O)cc(O)cc2o1` ?
> 10 µM

What do you get for `CC(C)Nc1ncccc1-c1ncnc(Nc2ccc(C(N)=O)cc2)n1` ?
> 12.9 µM

What do you get for `CNC(=O)N1CCN(c2ncccc2OCc2ccnc(NC(=O)CN3CCN(C)CC3)c2)CC1` ?
1 to 10 µM

What do you get for `COc1cc(Nc2ncnc(-n3c(Nc4cc(C)n[nH]4)nc4ccccc43)n2)cc(OC)c1OC` ?
0.845 to 5.07 µM

What do you get for `O=c1[nH]c2ccccc2n1-c1ncnc(Nc2ccccc2[N+](=O)[O-])n1` ?
6.87 to 10 µM

What do you get for `COc1ccc(-c2nc(-c3ccncc3)nn2CCN(C(=O)Nc2ccc(C)cc2)C2CCCC2)cc1Cl` ?
≥ 10 µM

What do you get for NCC1CC(n2cc(-c3ccc4occc4c3)c3c(N)ncnc32)C1 (centres unmarked) ?
1.8 µM

What do you get for CCCS(=O)(=O)N=S(C)(=O)c1ccc2cc1NCCCCNc1nc(ncc1Br)N2 (racemic) ?
1.7 µM

What do you get for `COc1ccc(-c2nc(-c3ccncc3)nn2CCN(C(=O)Cc2cccc3ccccc23)C2CCN(C)CC2)cc1Cl` ?
≥ 10 µM

What do you get for `CCOC(=O)Cn1nc(-c2ccc(OC)c(Cl)c2)nc1-c1ccncc1` ?
≥ 10 µM

What do you get for `COc1ccc(-c2nc(-c3ccncc3)nn2CCN(C(=O)NCCc2ccccc2)C2CCCC2)cc1Cl` ?
≥ 10 µM

What do you get for `COCCNc1cc(-c2nc(C)n(CCN(C(=O)Cc3cccc4ccccc34)C3CCCC3)n2)ccn1` ?
< 0.05 µM

What do you get for `COc1ccc(-c2nc(-c3ccncc3)nn2CCN(C(=O)Nc2ccc(F)cc2)C2CCCC2)cc1Cl` ?
≥ 10 µM

What do you get for `COc1cc(Nc2ncnc(-c3ccccc3)n2)cc(OC)c1` ?
> 14.6 µM

What do you get for `O=C(Nc1cc(C(F)(F)F)cc(C(F)(F)F)c1)N1CCN(c2nsnc2OCc2ccnc(F)c2)CC1` ?
1 to 10 µM

What do you get for `Nc1nccc(-c2nc(N[C@H]3c4ccccc4C[C@H]3O)c3ccccc3n2)n1` ?
0.05 to 1 µM
